- ASSAY TARGET: α2C adrenergic receptor (Homo sapiens, UniProt P18825)
- Construct: Eurofins Cerep (contract screening)
- Sequence (P18825 whole entry): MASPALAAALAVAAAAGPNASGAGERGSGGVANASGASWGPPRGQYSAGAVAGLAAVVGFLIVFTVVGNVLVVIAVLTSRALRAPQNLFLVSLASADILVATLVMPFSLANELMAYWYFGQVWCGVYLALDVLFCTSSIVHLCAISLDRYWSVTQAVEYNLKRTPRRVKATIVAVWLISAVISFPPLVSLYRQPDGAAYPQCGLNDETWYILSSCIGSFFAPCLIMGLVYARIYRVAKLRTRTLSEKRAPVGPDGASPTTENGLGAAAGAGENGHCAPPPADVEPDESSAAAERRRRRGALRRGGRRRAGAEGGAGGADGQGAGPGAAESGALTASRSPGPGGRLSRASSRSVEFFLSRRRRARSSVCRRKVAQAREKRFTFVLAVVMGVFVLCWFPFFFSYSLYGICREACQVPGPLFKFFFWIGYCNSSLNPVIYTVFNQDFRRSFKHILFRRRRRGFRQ
- PROCEDURE TEXT: Radioligand binding assay (Eurofins Cerep), [3H]RX 821002 displacement
- ASSAY CONTEXT: Ki (nM ± SEM) a2C-AR, Table 3-1; 3 independent experiments
RECORDED METRIC: Ki (nM)
# unit: nM | format: bare number

Study these solved cases before continuing.
1) CC[C@@H]1CN2CCc3c([nH]c4ccccc34)[C@@H]2C[C@@H]1/C(=C\OC)C(=O)OC [Corynantheidine, reference compound] | 135
2) CO/C=C(/C(=O)OC)C1CCN(CCc2c[nH]c3ccccc23)CC1 | 830
3) COC(=O)CC1CCN(CCc2c[nH]c3cccc(OC)c23)CC1 | 69.3

The molecule CC[C@@H]1CN2CCc3c([nH]c4cccc(OC)c34)[C@@H]2C[C@@H]1/C(=C\OC)C(=O)OC [Mitragynine, mitragynine, reference compound] showed Ki equal to 4040

Reference for the values: patent US20260234147A1
